These records show IC50 for BRD4 (His-Brd4(44-477)) (Homo sapiens (Human), UniProt O60885).
measurementKind: IC50

| molecule | targetEntity | result |
| --- | --- | --- |
| Cc1cc(N2C(=O)c3c(C4CC4)nn(C)c3C2c2ccc(Cl)cc2)cn2c(C(F)F)nnc12 (racemic) [Example 3] | BRD4 (His-Brd4(44-477)) (Homo sapiens (Human), UniProt O60885) | < 11 nM |
| COc1ncccc1-c1n[nH]c2c1C(=O)N(c1cc(C)c3nnc(C)n3c1)[C@@H]2c1ccc(Cl)cc1 [Example 11] | BRD4 (His-Brd4(44-477)) (Homo sapiens (Human), UniProt O60885) | 42 nM |
| Cc1cc(N2C(=O)c3c(C4CC4)nn(C)c3[C@H]2c2ccc(Cl)cc2)cn2c(C(F)F)nnc12 [Example 7] | BRD4 (His-Brd4(44-477)) (Homo sapiens (Human), UniProt O60885) | < 11 nM |

* * *

These records show GI50 for MV-4-11 cells.

| compound | GI50 [nM] |
| --- | --- |
| COc1ncccc1-c1nn(C)c2c1C(=O)N(c1cc(C)c3nnc(C)n3c1)C2c1ccc(Cl)cc1 (racemic) | 17.5 |
| COc1ncccc1-c1nn(C)c2c1C(=O)N(c1cc(C)c3nnc(C)n3c1)[C@@H]2c1ccc(Cl)cc1 | 14.2 |
| COc1cc(N2C(=O)c3c(C4CC4)nn(C)c3C2c2ccc(Cl)cc2)cc2c1nnn2C (stereo not shown) | 44.5 |
| COc1ncccc1-c1n[nH]c2c1C(=O)N(c1cc(C)c3nnc(C)n3c1)[C@@H]2c1ccc(Cl)cc1 | 9.55 |
| Cc1cc(N2C(=O)c3c(C4CC4)nn(C)c3[C@H]2c2ccc(Cl)cc2)cc2c1nnn2C | 2.57 |
| COc1cc(N2C(=O)c3c(C4CC4)nn(C)c3C2c2ccc(Cl)cc2)cn2c(C)nnc12 (racemic) | 64.9 |
| COCCn1nc(C2CC2)c2c1C(c1ccc(Cl)cc1)N(c1cc(C)c3nnc(CF)n3c1)C2=O (stereo not shown) | 6.73 |

* * *

targetEntity: CREBBP bromodomain (His-CREBBP(1081-1197)) (Homo sapiens (Human))
Sequence (Q92793 1081-1197): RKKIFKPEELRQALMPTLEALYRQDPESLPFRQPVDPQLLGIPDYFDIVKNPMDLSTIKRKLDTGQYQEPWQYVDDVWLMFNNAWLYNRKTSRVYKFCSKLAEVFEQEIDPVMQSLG
protocolDetails: AlphaScreen in-vitro binding assay for CREBBP

| compound | IC50 |
| --- | --- |
| COc1ncccc1-c1n[nH]c2c1C(=O)N(c1cc(C)c3nnc(C)n3c1)C2c1ccc(Cl)cc1 (stereo not shown) | > 37 µM |

* * *

targetEntity: BRD4 (His-Brd4(44-477)) (Homo sapiens (Human))
pIC50: −log10 of the molar value.

| molecule | qualifyingSign | pIC50 |
| --- | --- | --- |
| COCCn1nc(C2CC2)c2c1[C@@H](c1ccc(Cl)cc1)N(c1cc(C)c3nnc(C)n3c1)C2=O | = | 7.74 |
| COc1ncccc1-c1nn(C)c2c1C(=O)N(c1cc(C)c3nnc(C)n3c1)[C@@H]2c1ccc(Cl)cc1 | = | 7.62 |
| COCCn1nc(C2CC2)c2c1C(c1ccc(Cl)cc1)N(c1cc(C)c3nnc(CF)n3c1)C2=O (stereo not drawn) | = | 7.60 |
| Cc1nnc2c(NC(=O)OC(C)(C)C)cc(N3C(=O)c4c(C5CC5)nn(C)c4C3c3ccc(Cl)cc3)cn12 (stereo not drawn) | = | 7.44 |
| Cc1cc(N2C(=O)c3c(C4CC4)nn(C)c3[C@H]2c2ccc(Cl)cc2)cn2c(CF)nnc12 | > | 7.96 |
| COc1cc(N2C(=O)c3c(C4CC4)nn(C)c3C2c2ccc(Cl)cc2)cc2c1nnn2C (stereo not drawn) | = | 7.66 |
| COc1cc(N2C(=O)c3c(C4CC4)nn(C)c3[C@H]2c2ccc(Cl)cc2)cn2c(C)nnc12 | = | 7.52 |
| Cc1cc(N2C(=O)c3c(C4CC4)nn(C)c3[C@H]2c2ccc(Cl)cc2)cn2c(C)nnc12 | > | 7.96 |
| COc1cc(N2C(=O)c3c(C4CC4)nn(C)c3C2c2ccc(Cl)cc2)cn2c(C(F)F)nnc12 (stereo not drawn) | = | 6.89 |
| CCOC(=O)Nc1cc(N2C(=O)c3c(C4CC4)nn(C)c3C2c2ccc(Cl)cc2)cn2c(C)nnc12 (stereo not drawn) | = | 7.64 |
| Cc1cc(N2C(=O)c3c(C4CC4)nn(-c4ccnn4C)c3C2c2ccc(Cl)cc2)nn2c(C)nnc12 (stereo not drawn) | = | 7.60 |
| COCCn1nc(C2CC2)c2c1C(c1ccc(Cl)cc1)N(c1cc(C)c3nnc(C)n3c1)C2=O (racemic) | > | 7.96 |
| COc1ncccc1-c1n[nH]c2c1C(=O)N(c1cc(C)c3nnc(C)n3c1)C2c1ccc(Cl)cc1 (stereo not drawn) | = | 7.52 |
| COc1ncccc1-c1nn(C)c2c1C(=O)N(c1cc(C)c3nnc(C)n3c1)C2c1ccc(Cl)cc1 (racemic) | = | 7.49 |
| COc1cc(N2C(=O)c3c(C4CC4)nn(C)c3C2c2ccc(Cl)cc2)cn2c(C)nnc12 (racemic) | = | 7.55 |

* * *

These records show GI50 for MV-4-11 cells.

| compound | GI50 / nM |
| --- | --- |
| Cc1cc(N2C(=O)c3c(C4CC4)nn(-c4ccnn4C)c3C2c2ccc(Cl)cc2)nn2c(C)nnc12 (stereo not shown) [Example 25] | 6.65 |
| Cc1cc(N2C(=O)c3c(C4CC4)nn(C)c3C2c2ccc(Cl)cc2)cn2c(C)nnc12 (stereo not shown) [Example 1] | 5.42 |
| Cc1cc(N2C(=O)c3c(C4CC4)nn(C)c3C2c2ccc(Cl)cc2)cn2c(C(F)F)nnc12 (racemic) [Example 3] | 9.49 |
| Cc1cc(N2C(=O)c3c(C4CC4)nn(C)c3[C@H]2c2ccc(Cl)cc2)nn2c(C)nnc12 [Example 24] | 0.643 |
| Cc1cc(N2C(=O)c3c(C4CC4)nn(C[C@H](O)C(F)(F)F)c3[C@H]2c2ccc(Cl)cc2)cn2c(C)nnc12 [Example 20] | 6.47 |
| Cc1cc(N2C(=O)c3c(C4CC4)nn(-c4ccnn4C)c3C2c2ccc(Cl)cc2)cc2c1nnn2C (stereo not shown) [Example 21] | 13.5 |
| Cc1nnc2c(N)cc(N3C(=O)c4c(C5CC5)nn(C)c4C3c3ccc(Cl)cc3)cn12 (stereo not shown) [Example 28] | 1.56 |
| COc1cc(N2C(=O)c3c(C4CC4)nn(C)c3[C@H]2c2ccc(Cl)cc2)cn2c(C)nnc12 [Example 14] | 20.1 |
| Cc1cc(N2C(=O)c3c(C4CC4)nn(C)c3[C@H]2c2ccc(Cl)cc2)cn2c(C(F)F)nnc12 [Example 7] | 2.45 |
| Cc1cc(N2C(=O)c3c(C4CC4)nn(C)c3[C@H]2c2ccc(Cl)cc2)cn2c(CF)nnc12 [Example 17] | 4.28 |
| Cc1cc(N2C(=O)c3c(C4CC4)nn(C)c3[C@H]2c2ccc(Cl)cc2)cn2c(C)nnc12 [Example 2] | 4.31 |
| COc1cc(N2C(=O)c3c(C4CC4)nn(C)c3C2c2ccc(Cl)cc2)cn2c(C(F)F)nnc12 (stereo not shown) [Example 22] | 266 |
| COCCn1nc(C2CC2)c2c1[C@@H](c1ccc(Cl)cc1)N(c1cc(C)c3nnc(C)n3c1)C2=O [Example 15] | 2.41 |

* * *

pIC50: −log10 of the molar value.
These records show pIC50 for BRD3 (His-Brd3(20-477)) (Homo sapiens (Human), UniProt Q15059).
measurementKind: pIC50

| compound | qualifyingSign | readoutNumber |
| --- | --- | --- |
| COCCn1nc(C2CC2)c2c1C(c1ccc(Cl)cc1)N(c1cc(C)c3nnc(CF)n3c1)C2=O (centres unmarked) [Example 18] | = | 7.62 |
| Cc1cc(N2C(=O)c3c(C4CC4)nn(C)c3C2c2ccc(Cl)cc2)cn2c(CF)nnc12 (racemic) [Example 16] | = | 7.89 |
| Cc1cc(N2C(=O)c3c(C4CC4)nn(C)c3[C@H]2c2ccc(Cl)cc2)cn2c(C(F)F)nnc12 [Example 7] | = | 7.92 |
| COc1cc(N2C(=O)c3c(C4CC4)nn(C)c3C2c2ccc(Cl)cc2)cn2c(C(F)F)nnc12 (centres unmarked) [Example 22] | = | 6.64 |
| Cc1nnc2c(N)cc(N3C(=O)c4c(C5CC5)nn(C)c4C3c3ccc(Cl)cc3)cn12 (centres unmarked) [Example 28] | = | 7.47 |
| COc1cc(N2C(=O)c3c(C4CC4)nn(C)c3C2c2ccc(Cl)cc2)cc2c1nnn2C (centres unmarked) [Example 6] | = | 7.60 |
| Cc1cc(N2C(=O)c3c(C4CC4)nn(-c4ccnn4C)c3C2c2ccc(Cl)cc2)nn2c(C)nnc12 (centres unmarked) [Example 25] | = | 7.62 |
| COc1ncccc1-c1n[nH]c2c1C(=O)N(c1cc(C)c3nnc(C)n3c1)[C@@H]2c1ccc(Cl)cc1 [Example 11] | = | 7.43 |
| Cc1cc(N2C(=O)c3c(C4CC4)nn(-c4ccnn4C)c3C2c2ccc(Cl)cc2)cc2c1nnn2C (centres unmarked) [Example 21] | = | 7.64 |
| Cc1cc(N2C(=O)c3c(C4CC4)nn(C)c3C2c2ccc(Cl)cc2)cn2c(C(F)F)nnc12 (racemic) [Example 3] | > | 7.96 |
| COc1cc(N2C(=O)c3c(C4CC4)nn(C)c3[C@H]2c2ccc(Cl)cc2)cn2c(C)nnc12 [Example 14] | = | 7.26 |
| COc1cc(N2C(=O)c3c(C4CC4)nn(C)c3C2c2ccc(Cl)cc2)cn2c(C)nnc12 (racemic) [Example 5] | = | 7.36 |
| COCCn1nc(C2CC2)c2c1C(c1ccc(Cl)cc1)N(c1cc(C)c3nnc(C)n3c1)C2=O (racemic) [Example 4] | > | 7.96 |
| COc1ncccc1-c1n[nH]c2c1C(=O)N(c1cc(C)c3nnc(C)n3c1)C2c1ccc(Cl)cc1 (centres unmarked) [Example 10] | = | 7.35 |
| Cc1nnc2c(NC(=O)OC(C)(C)C)cc(N3C(=O)c4c(C5CC5)nn(C)c4C3c3ccc(Cl)cc3)cn12 (centres unmarked) [Example 27] | = | 7.19 |
| COCCn1nc(C2CC2)c2c1[C@@H](c1ccc(Cl)cc1)N(c1cc(C)c3nnc(C)n3c1)C2=O [Example 15] | = | 7.80 |
| COc1ncccc1-c1nn(C)c2c1C(=O)N(c1cc(C)c3nnc(C)n3c1)[C@@H]2c1ccc(Cl)cc1 [Example 13] | = | 7.66 |
